Numbers sourced from ChEMBL document CHEMBL3885881.

# LACTATE DEHYDROGENASE annotations
Species on record: Rattus norvegicus
Test: DrugMatrix - Regimen: Daily Repeat
Format: toxicity, organism-based, Sprague-Dawley
Set-up: regimen Daily Repeat, gender Male, age 6-8 weeks
Details: in vivo, po, 0 mg/kg, 120 h, tissue Plasma, route oral GAVAGE, dose level Control, time 5 day, vehicle 100 % WATER
Hi! Could you send only the number? It should be in u/L, unit omitted.

Example molecules with recorded LACTATE DEHYDROGENASE:
>  <molecule>
Cc1c(N(C)CS(=O)(=O)[O-])c(=O)n(-c2ccccc2)n1C.[Na+] [DIPYRONE SODIUM]

>  <LACTATE DEHYDROGENASE, u/L>
129.33

$$$$
>  <molecule>
O=C(O)c1cccnc1 [NIACIN]

>  <LACTATE DEHYDROGENASE, u/L>
544.33

$$$$

Req: Request the reported LACTATE DEHYDROGENASE associated with CNS(=O)(=O)Cc1ccc2[nH]cc(CCN(C)C)c2c1
Resp: 95

Req: Follow-up entry: CN1C2CCCC1CC(NC(=O)c1nn(C)c3ccccc13)C2 (centres undefined) [GRANISETRON]
Resp: 141.33
